Biological target: T1, human Y1 receptor (human, UniProt P25929 1-384)
T1 construct: whole, on cells; transiently expressed in COS-7 cells; membranes used; also called Y1 gene
T1 sequence (looked up): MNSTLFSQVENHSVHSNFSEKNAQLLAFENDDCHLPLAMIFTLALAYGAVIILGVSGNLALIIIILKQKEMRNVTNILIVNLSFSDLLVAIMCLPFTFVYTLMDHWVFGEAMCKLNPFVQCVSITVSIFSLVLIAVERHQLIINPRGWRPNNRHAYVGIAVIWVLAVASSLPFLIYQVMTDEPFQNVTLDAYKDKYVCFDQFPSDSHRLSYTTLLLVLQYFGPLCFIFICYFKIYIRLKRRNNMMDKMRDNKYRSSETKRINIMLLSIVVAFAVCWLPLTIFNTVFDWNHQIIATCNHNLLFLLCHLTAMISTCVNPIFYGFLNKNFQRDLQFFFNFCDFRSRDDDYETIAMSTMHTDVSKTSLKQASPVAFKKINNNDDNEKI
Experiment: 125I-PYY displacement, COS-7 membranes, Ki from IC50
Where no end group is shown, it is not given here.
Assignment: determine reported Ki for the given binders.
The answer is to be given in nM; state only the numeric part.

I would be grateful if you could share the reported Ki for YYSALRHYINLITRQRY-NH2 (peptide, UniProt P01304 29-45, looked up, range 20-36; also called NPY20-36, porcine) [porcine NPY20-36] .
63

I would be grateful if you could share the reported Ki for APLEPEYPGDNATPEQMAQYAAELRRYINMLTRPRY-NH2 (peptide, UniProt P01302 30-65, looked up, mature; also called bovine PP) [PP, bovine] .
240

I would be grateful if you could share the reported Ki for APLEPMYPGDYATHEQRAQYETQLRRYINTLTRPRY-NH2 (peptide, UniProt P06303 30-65, looked up, mature; also called rat PP) [PP, rat] .
460

I would be grateful if you could share the reported Ki for APSEPHHPGDQATQDQLAQYYSDLYQYITFVTRPRF-NH2 (also called frog PP) [PP, frog] .
96
